// provenance: ChEMBL document CHEMBL1201862

system: NCI-H460; assay: NCI tumour cell line growth inhibition, 48 h
Activity calls are given as the source filed them. No stated cut-off is given here; in the data, active = GI50 up to about 1.1 µM and inactive = higher.
Known GI50 of a selection of compounds
observation-type: GI50

INSERT INTO measurements (compound, assay_result) VALUES
  ('O=C(Cc1nc2ccc([N+](=O)[O-])cc2nc1O)C(=O)Nc1cc(Cl)c(Cl)cc1Cl', '> 100 µM (inactive)'),
  ('CC1=NN(c2nc(N)nc(C(C)Sc3cc(Cl)c(C)cc3S(N)(=O)=O)n2)C(C)(C)C1 (stereo unspecified)', '> 10 µM (inactive)'),
  ('CCOC(=O)[C@H]1Nc2ccc(OC)cc2C2c3ccccc3CC21 (stereo partly specified)', '> 100 µM (inactive)'),
  ('CSC(=NC1=NC(C(F)(F)F)(C(F)(F)F)N=C(c2ccccc2)O1)SC', '12.2 µM (inactive)'),
  ('CC(=O)c1ccc(NCc2cc(O)ccc2O)cc1', '23.1 µM (inactive)'),
  ('C/C(=N\NC(=N)N)C(CN1CCOCC1)C(c1ccccc1)c1c(O)c2ccccc2oc1=O (stereo unspecified)', '> 100 µM (inactive)'),
  ('C[C@H](CCCOS(C)(=O)=O)[C@H]1CC[C@H]2[C@@H]3CC[C@@H]4C[C@H](OS(C)(=O)=O)CC[C@]4(C)[C@H]3CC[C@]12C', '30.5 µM (inactive)'),
  ('O=C(O)C1CC=CCC1C(=O)Nc1cccc(O)c1 (stereo unspecified)', '> 100 µM (inactive)'),
  ('NCCNc1cccc2ccccc12', '> 100 µM (inactive)'),
  ('O=[N+]([O-])c1cc(-c2ccc([As](=O)(O)O)cc2)ccc1[As](=O)(O)O', '> 100 µM (inactive)'),
  ('O=C(O)c1ccc(Nc2nc3cc(C(F)(F)F)ccc3nc2C(=O)O)cc1', '> 100 µM (inactive)');

---

test system: MCF7; assay: NCI tumour cell line growth inhibition, 48 h
Activity calls are given as the source filed them. Cut-off read from the data, not from the text of the source: active = GI50 up to about 1.1 µM and inactive = higher.
observation-type: GI50

INSERT INTO results (compound, assay_result) VALUES
  ('CC(C)Oc1cccc(N2C(Nc3ccccc3)=Nc3ccncc3S2(=O)=O)c1', '17.6 µM (inactive)'),
  ('CCCCCCCCCCCCCCCCCCNc1ccn(C2OC(COP(=O)(O)OCC(COP(=O)(O)OCC3OC(n4cc(C)c(=O)[nH]c4=O)CC3N=[N+]=[N-])OCCCCCCCCCCCCCCCCCC)C(O)C2O)c(=O)n1 (stereo not drawn)', '34.4 µM (inactive)'),
  ('NN/C(=N\S(=O)(=O)c1ccc(-c2ccccn2)s1)Nc1ccc(Cl)cc1', '> 100 µM (inactive)'),
  ('CN1CN(c2ccccc2)C2(CCN(C3Nc4ccccc4O3)CC2)C1=O (stereo not drawn)', '19.5 µM (inactive)'),
  ('CC(=O)c1c(O)nnc(-c2ccc(Cl)cc2)c1-c1ccc(Cl)cc1', '32.1 µM (inactive)'),
  ('CC1=NN(c2nc(N)nc(C(C)Sc3cc(Cl)c(C)cc3S(N)(=O)=O)n2)C(C)(C)C1 (stereo not drawn)', '> 10 µM (inactive)'),
  ('O=C(O)CCNc1ccccc1C(=O)O', '> 100 µM (inactive)'),
  ('CC1=C(O)C(=O)c2ccccc2C1=O', '67.6 µM (inactive)');

---

system: SF-268; assay: NCI tumour cell line growth inhibition, 48 h
Calls of active or inactive are those of the source. Rule as the data show it: active = GI50 up to about 1.1 µM and inactive = higher.
Classes used: active, inactive

INSERT INTO measurements (molecule, measured_target, assigned_label) VALUES
  ('COC(=O)[C@H](Cc1ccccc1)NC(=O)c1ccc(CNC(=O)/C=C/c2cccc(Oc3ccccc3)c2)cc1', 'SF-268', 'inactive'),
  ('CC1Cc2c(cc(N)nc2Br)NC1=O (stereo not drawn)', 'SF-268', 'inactive'),
  ('CC(=O)Nc1oc(C)c(C)c1S(=O)(=O)c1ccc(Cl)cc1', 'SF-268', 'inactive'),
  ('CCOC(=O)Nc1cc2c(c(N)n1)N=C(c1ccc3ccccc3c1)CN2', 'SF-268', 'inactive'),
  ('C/C(=N/NC(N)=S)c1ccc2ccccc2c1', 'SF-268', 'inactive'),
  ('COc1cc([C@@H]2c3[nH]c4ccccc4c3C(Nc3ccc([N+](=O)[O-])cc3)[C@H]3COC(=O)N23)cc(OC)c1O (stereo partly drawn)', 'SF-268', 'active'),
  ('CCCCCCCSCC(O)COC(c1ccccc1)(c1ccccc1)c1ccccc1 (stereo not drawn)', 'SF-268', 'inactive'),
  ('NC1=NS(=O)(=O)Nc2nc(-c3cccs3)[nH]c21', 'SF-268', 'inactive'),
  ('Cc1cccc2c(O)c3c(O)cc(O)cc3nc12', 'SF-268', 'inactive'),
  ('O=C(CCc1nnc2s/c(=C\c3ccc4c(c3)OCO4)c(=O)n12)Nc1cc(Cl)ccc1Cl', 'SF-268', 'inactive'),
  ('CCOC(=O)c1nc(SC)sc1NC(=O)c1ccc(OC)cc1', 'SF-268', 'inactive'),
  ('O=C(c1ccccc1)c1ccc2[nH]c(-c3c(Cl)c(Cl)c(Cl)c(Cl)c3C(=O)N/N=C\C=C\c3ccccc3)nc2c1', 'SF-268', 'inactive'),
  ('[N-]=[N+]=NC12CC3C4CC5CC3C(C1)C(C5)C4C2', 'SF-268', 'inactive');
